- PROTOCOL DESCRIPTION: Half life in human blood plasma
- Format: ADME, cell-free
ENDPOINT NAME: half-life (days)

smiles_record=O=C(O[C@H]1C[C@H](n2cc(F)c(=O)[nH]c2=O)O[C@@H]1CO)c1ccc([N+](=O)[O-])cc1 display_unit=days recorded_value=0.625

a = O=C(O[C@H]1C[C@H](n2cc(F)c(=O)[nH]c2=O)O[C@@H]1CO)c1ccccc1Cl
b = O=C(CCCC[C@@H]1CCSS1)O[C@H]1C[C@H](n2cc(F)c(=O)[nH]c2=O)O[C@@H]1CO
c = CC(=O)Oc1ccccc1C(=O)O[C@H]1C[C@H](n2cc(F)c(=O)[nH]c2=O)O[C@@H]1CO
Lookup: Your job: order these 3 records by half-life, ascending. Respond with an ordered listing of the labels, as requested.
Found: b, c, a

I = O=C(O[C@H]1C[C@H](n2cc(F)c(=O)[nH]c2=O)O[C@@H]1CO)c1cccnc1
II = O=C(O[C@H]1C[C@H](n2cc(F)c(=O)[nH]c2=O)O[C@@H]1CO)c1cncc(C(=O)O[C@H]2C[C@H](n3cc(F)c(=O)[nH]c3=O)O[C@@H]2CO)c1
Lookup: Which record shows the lower half-life: the first, I , or the second, II ? Give the label of your selection.
Found: II
(II: 0.217 days, I: 4.38 days)

###

- PROTOCOL DESCRIPTION: Half life in RPMI 1640 media
- Type: ADME
- EXPERIMENTAL CONDITIONS: RPMI 1640 medium
The entries below come with measured half-life values attached.

Reference set, count: 2
smiles_record=O=C(O[C@H]1C[C@H](n2cc(F)c(=O)[nH]c2=O)O[C@@H]1CO)c1ccccc1 recorded_value="> 240 h"
smiles_record=O=C(O[C@H]1C[C@H](n2cc(F)c(=O)[nH]c2=O)O[C@@H]1CO)C(Cl)Cl recorded_value="< 0.1 h"

Please find the next compound below.
Lookup: What value of measured half-life is listed for `O=C(O[C@H]1C[C@H](n2cc(F)c(=O)[nH]c2=O)O[C@@H]1CO)c1nn(Cc2ccc(Cl)cc2Cl)c2ccccc12` ?
Found: > 240 h

###

- PROTOCOL DESCRIPTION: Half life in human blood plasma
- Format: ADME, cell-free
ENDPOINT NAME: half-life

smiles_record=O=C(O[C@H]1C[C@H](n2cc(F)c(=O)[nH]c2=O)O[C@@H]1CO)c1nn(Cc2ccc(Cl)cc2Cl)c2ccccc12 recorded_value="> 240 h"
smiles_record=O=C(O[C@H]1C[C@H](n2cc(F)c(=O)[nH]c2=O)O[C@@H]1CO)c1ccccc1 recorded_value="144 h"
smiles_record=O=C(O[C@H]1C[C@H](n2cc(F)c(=O)[nH]c2=O)O[C@@H]1CO)C(Cl)Cl recorded_value="< 0.1 h"

Lookup: What value of measured half-life is listed for `CC(C)(C)c1ccc(C(=O)O[C@H]2C[C@H](n3cc(F)c(=O)[nH]c3=O)O[C@@H]2CO)cc1` ?
Found: > 240 h

Lookup: What value of measured half-life is listed for `COc1ccc(C(=O)O[C@H]2C[C@H](n3cc(F)c(=O)[nH]c3=O)O[C@@H]2CO)cc1` ?
Found: > 240 h
